test system: myeloid leukemia patient primary cells Pat.7; test: cell viability (% survival relative to DMSO control); higher = less cytotoxic; settings: 10 nM; 72 h
Binarize cell viability at 80%; below is 1 (yes), at or above is 0 (no).

{"Molecule": "CN(C)C(=O)n1nnnc1Cc1ccc(-c2ccccc2)cc1", "System Under Test": "myeloid leukemia patient primary cells Pat.7", "Discrete Label": "1 (yes)"}
{"Molecule": "N#CC(C#N)=NNc1ccc(OC(F)(F)F)cc1", "System Under Test": "myeloid leukemia patient primary cells Pat.7", "Discrete Label": "0 (no)"}
{"Molecule": "CCC(=O)N1CCN(c2ccc(-n3c(=O)ccc4cnc5ccc(-c6cnc7ccccc7c6)cc5c43)cc2C(F)(F)F)CC1", "System Under Test": "myeloid leukemia patient primary cells Pat.7", "Discrete Label": "1 (yes)"}
{"Molecule": "O=C1O/C(=C/Br)CCC1c1cccc2ccccc12 (stereo not given)", "System Under Test": "myeloid leukemia patient primary cells Pat.7", "Discrete Label": "1 (yes)"}
{"Molecule": "O=C(O)Cn1nnc(-c2cc(N3CCC(Oc4cc(F)ccc4Br)CC3)no2)n1", "System Under Test": "myeloid leukemia patient primary cells Pat.7", "Discrete Label": "0 (no)"}

---

tested on: BV-173; assay: cell viability (% survival relative to DMSO control, bortezomib = 0%); higher = less cytotoxic; details: 1000 nM; 72 h
Under this convention, met denotes cell viability strictly below 90% and not met denotes cell viability at or above 90%.

{"Molecule": "O=C1c2cc([N+](=O)[O-])ccc2-n2c1nc1ccccc1c2=O [GNF-Pf-3777]", "Discrete Label": "met"}
{"Molecule": "O=C(O)C[C@@]1(O)C[C@@H](CCCCCCc2ccc(Cl)cc2Cl)OC1=O", "Discrete Label": "not met"}
{"Molecule": "CC(C)c1cc2c(c(O)c1O)[C@@]1(C(=O)O)CCCC(C)(C)[C@@H]1CC2 [Carnosic acid]", "Discrete Label": "met"}
{"Molecule": "NC(=O)c1cccc(-c2cccc(OC(=O)NC3CCCCC3)c2)c1 [URB-597]", "Discrete Label": "not met"}

---

The following compounds are listed with their measured cell viability values.
system: HL-60; experiment: cell viability (% survival relative to DMSO control); higher = less cytotoxic; conditions: 10 µM; 72 h; co-treatment: pictilisib 100 nM

{"Compound": "O=C1O[C@H]([C@@H](O)CO)C(O)=C1O [Vitamin C (ascorbate)]", "System Under Test": "HL-60", "cell viability (%)": 75.2}
{"Compound": "C=C(C)[C@H]1Cc2c(ccc3c2O[C@@H]2COc4cc(OC)c(OC)cc4[C@@H]2C3=O)O1", "System Under Test": "HL-60", "cell viability (%)": 9.82}
{"Compound": "Cc1c(-c2ccc(-c3ccccc3F)cc2)nc2ccc(F)cc2c1C(=O)O", "System Under Test": "HL-60", "cell viability (%)": 93}
{"Compound": "COc1cc(/C=C/C(=O)N2CCC=CC2=O)cc(OC)c1OC", "System Under Test": "HL-60", "cell viability (%)": 3.95}
{"Compound": "CCCCCCCCCCC[C@@H](C[C@@H]1OC(=O)[C@H]1CCCCCC)OC(=O)[C@H](CC(C)C)NC=O", "System Under Test": "HL-60", "cell viability (%)": 90.5}
{"Compound": "CCC(=O)N1CCN(c2ccc(-n3c(=O)ccc4cnc5ccc(-c6cnc7ccccc7c6)cc5c43)cc2C(F)(F)F)CC1", "System Under Test": "HL-60", "cell viability (%)": 65.5}
{"Compound": "CCN(CC)CCCC(C)Nc1ccnc2cc(Cl)ccc12 (configuration not stated)", "System Under Test": "HL-60", "cell viability (%)": 100}

---

test system: KG-1; test: cell viability (% survival relative to DMSO control, bortezomib = 0%); higher = less cytotoxic; details: 1000 nM; 72 h
This listing pairs compounds with measured cell viability.

{"Compound": "CCCCC/C=C\\C/C=C\\C/C=C\\C/C=C\\CCCCN1C(=O)C=CC1=O [N-Arachidonylmaleimide]", "cell viability [%]": 93.1}
{"Compound": "CN(C)C(=O)[C@H](O)[C@H](Cc1ccccc1)NC(=O)c1cc2cc(Cl)ccc2[nH]1", "cell viability [%]": 114}
{"Compound": "N/C(=N\\CCCC(N)C(=O)O)N[N+](=O)[O-] [L-NNA]", "cell viability [%]": 92.6}
{"Compound": "O=C1O/C(=C/Br)CCC1c1cccc2ccccc12 (stereo unspecified) [Bromoenol Lactone]", "cell viability [%]": 89.8}
{"Compound": "COc1cc(/C=C/C(=O)N2CCC=CC2=O)cc(OC)c1OC [Piperlongumine]", "cell viability [%]": 98.3}
{"Compound": "O=C(O)c1cc(Cl)cc(Cl)c1O [3,5-Dichlorosalicylic Acid]", "cell viability [%]": 117}
{"Compound": "CCOC(=O)c1ccc(-c2ccc(OC(=O)N(C)Cc3cccc(-c4ccncc4)c3)cc2)cc1 [WWL113]", "cell viability [%]": 94.3}
{"Compound": "Cc1coc2c1C(=O)C(=O)c1c-2ccc2c1CCCC2(C)C [Tanshinone IIA]", "cell viability [%]": 102}
{"Compound": "O=C(NCCCCCCNC(=O)ONC1=CCCCC1)ONC1=CCCCC1", "cell viability [%]": 92.8}
{"Compound": "C[C@](N)(Cc1ccc(O)cc1)C(=O)O [Metirosine]", "cell viability [%]": 89.3}
{"Compound": "CCC(=O)N1CCN(c2ccc(-n3c(=O)ccc4cnc5ccc(-c6cnc7ccccc7c6)cc5c43)cc2C(F)(F)F)CC1 [Torin1]", "cell viability [%]": 29.1}

---

system: myeloid leukemia patient primary cells Pat.15; assay: cell viability (% survival relative to DMSO control); higher = less cytotoxic; conditions: 1000 nM; 72 h
# Lookup of reported cell viability keyed by entry

{"Molecule": "C=C(C)[C@H]1Cc2c(ccc3c2O[C@@H]2COc4cc(OC)c(OC)cc4[C@@H]2C3=O)O1 [Rotenone]", "cell viability, %": 24.3}
{"Molecule": "COC(=O)[C@]12CCC(C)(C)C[C@H]1[C@H]1C(=O)C=C3[C@@]4(C)C=C(C#N)C(=O)C(C)(C)[C@@H]4CC[C@@]3(C)[C@]1(C)CC2 [Bardoxolone methyl]", "cell viability, %": 69}
{"Molecule": "O=C1c2cc([N+](=O)[O-])ccc2-n2c1nc1ccccc1c2=O [GNF-Pf-3777]", "cell viability, %": 87.9}
{"Molecule": "Cc1c(-c2ccc(-c3ccccc3F)cc2)nc2ccc(F)cc2c1C(=O)O [Brequinar]", "cell viability, %": 98.9}

---

system: MV4-11; assay: cell viability (% survival relative to DMSO control, bortezomib = 0%); higher = less cytotoxic; conditions: 10000 nM; 72 h
Observed Property: cell viability (%)

{"Compound": "CC(C)(C#N)c1cc(Cn2cncn2)cc(C(C)(C)C#N)c1 [Anastrozole]", "Measured": 96.4}
{"Compound": "C=C(C)[C@H]1Cc2c(ccc3c2O[C@@H]2COc4cc(OC)c(OC)cc4[C@@H]2C3=O)O1 [Rotenone]", "Measured": 0.258}
{"Compound": "NS(=O)(=O)c1ccc([N+](=O)[O-])cc1 [4-Nitrobenzenesulfonamide]", "Measured": 114}
{"Compound": "O=C(O)C[C@@]1(O)C[C@@H](CCCCCCc2ccc(Cl)cc2Cl)OC1=O", "Measured": 98.4}

---

test system: myeloid leukemia patient primary cells Pat.1; assay: cell viability (% survival relative to DMSO control); higher = less cytotoxic; conditions: 1 nM; 72 h

{"Compound": "O=C(O)Cn1nnc(-c2cc(N3CCC(Oc4cc(F)ccc4Br)CC3)no2)n1 [MK-8245]", "cell viability": "96.4%"}
{"Compound": "Nc1nc(Cl)nc2c1ncn2[C@H]1C[C@H](O)[C@@H](CO)O1 [Cladribine]", "cell viability": "95.2%"}
{"Compound": "Oc1ccc(Nc2nc(-c3ccc(Cl)cc3)cs2)cc1 [SKI II]", "cell viability": "64.1%"}
{"Compound": "COc1cc(/C=C/C(=O)N2CCC=CC2=O)cc(OC)c1OC [Piperlongumine]", "cell viability": "93.4%"}

---

system: HL-60; test: cell viability (% survival relative to DMSO control, bortezomib = 0%); higher = less cytotoxic; conditions: 10 nM; 72 h

{"Molecule": "O=C1O[C@H]([C@@H](O)CO)C(O)=C1O [Vitamin C (ascorbate)]", "Unit Abbrev": "%", "cell viability": 91.2}
{"Molecule": "O=C1O/C(=C/Br)CCC1c1cccc2ccccc12 (stereo not drawn) [Bromoenol Lactone]", "Unit Abbrev": "%", "cell viability": 101}
{"Molecule": "NCCCC(N)(C(=O)O)C(F)F (stereo not drawn) [Difluoromethylornithine]", "Unit Abbrev": "%", "cell viability": 123}
{"Molecule": "COc1ccc(-c2ccccc2)cc1NS(=O)(=O)c1cc(Cl)cc(Cl)c1O", "Unit Abbrev": "%", "cell viability": 77.6}
{"Molecule": "O=C(O)C[C@@]1(O)C[C@@H](CCCCCCc2ccc(Cl)cc2Cl)OC1=O", "Unit Abbrev": "%", "cell viability": 123}
{"Molecule": "COc1ccc2c(C(=S)N(C)CC(=O)O)cccc2c1C(F)(F)F [Tolrestat]", "Unit Abbrev": "%", "cell viability": 104}
{"Molecule": "COC(=O)[C@]12CCC(C)(C)C[C@H]1[C@H]1C(=O)C=C3[C@@]4(C)C=C(C#N)C(=O)C(C)(C)[C@@H]4CC[C@@]3(C)[C@]1(C)CC2 [Bardoxolone methyl]", "Unit Abbrev": "%", "cell viability": 91.8}
{"Molecule": "CC(C)c1nc(CN(C)C(=O)N[C@H](C(=O)N[C@@H](Cc2ccccc2)C[C@H](O)[C@H](Cc2ccccc2)NC(=O)OCc2cncs2)C(C)C)cs1 [Ritonavir]", "Unit Abbrev": "%", "cell viability": 101}
